B1: Osa-1-4 twister ribozyme (parent)
chain: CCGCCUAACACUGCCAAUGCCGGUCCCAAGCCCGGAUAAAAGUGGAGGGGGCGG

# Variants of: B1
# protocol.text: self-cleavage, relative activity (ratio to wild type); higher = more cleavage; co-transcriptional
If the reported self-cleavage equals or exceeds 0.1, assign class 1. If not, assign class 0.

Qu. Please indicate if the recorded self-cleavage for CCGCCUAACACGGCCAAUGCCGGUCCCAGGCCCGGAUAAAAGUGGAGGGGGCGG [A29G U12G] meets or exceeds 0.1.
Ans. class 0

Qu. Is it the case that CCGCCUAACCCUGCCAAUGCCGGGCCCAAGCCCGGAUAAAAGUGGAGGGGGCGG [A10C U24G] has self-cleavage reaching or exceeding 0.1?
Ans. class 0

Qu. Check the entry CCGCCUAACACUGCCAAUACCGGUCCCAUGCCCGGAUAAAAGUGGAGGGGGCGG [A29U G19A] : does self-cleavage equal or exceed 0.1?
Ans. class 0

Qu. Hi team, for CCGCCUAACACUGCCAAUGCCGGUCCCAAGCCCGCAGAAAAGUGGAGGGGGCGG [G35C U37G] , is the recorded self-cleavage at or above 0.1?
Ans. class 1

Qu. Item CCGCCUAACGCUGCCAAUGCCGGUCCCAAGCCCGGAUAAAAGUGGACGGGGCGG [A10G G47C] with self-cleavage of 0.1 or above?
Ans. class 0

Qu. Hello, I need to know if CCGCCUAACACUACCAAUGCCGGUCCCAAGCCCGGUUAAAAGUGGAGGGGGCGG [A36U G13A] has measured self-cleavage not below 0.1. Thanks!
Ans. class 1

Qu. // inclusive: self-cleavage at least 0.1? input: CCGCCUGACACUGCCAGUGCCGGUCCCAAGCCCGGAUAAAAGUGGAGGGGGCGG [A17G A7G]
Ans. class 1

Qu. hey, is self-cleavage for this one >= 0.1? CCGCCUAACACUGCCAAUGCCGGUUCCAAGCCCGGAUAAAAGUUGAGGGGGCGG [C25U G44U]
Ans. class 1

Qu. Identify whether the reported self-cleavage of the following variant is 0.1 or greater: CCGCCUAAAACUGCCAAUGCCGGUCCCAAGCCCGGAUAAAAGUCGAGGGGGCGG [C9A G44C]
Ans. class 1

Qu. Assess whether reported self-cleavage for CCGCCUAACACUGACAAUGCCGGUCCCAAGCCCGGAUAAAAGUGAAGGGGGCGG [C14A G45A] sits at 0.1 or higher.
Ans. class 0

Qu. Given CCGCCUAACACUGCCAAUUCCGGUCCCAAGCCCGGAAAAAAGUGGAGGGGGCGG [G19U U37A] , state whether its self-cleavage is at least 0.1.
Ans. class 1

Qu. Test whether the variant CCGCCUAACACUGCUAAUGCCGGUCCCAAGCCCGGAUAAAAGUGUAGGGGGCGG [C15U G45U] records self-cleavage of 0.1 or higher.
Ans. class 0

Qu. Say whether CCGCCUAACUCUGCCAAUGCCGGUCCCAAGCCCGGAUAAAAGAGGAGGGGGCGG [A10U U43A] shows self-cleavage of 0.1 or more.
Ans. class 1

Qu. Threshold query (self-cleavage >= 0.1) on CCGCCUAACACUGCCAAUGCCAGUCCCAAGUCCGGAUAAAAGUGGAGGGGGCGG [C31U G22A]
Ans. class 1

Qu. Does the reported self-cleavage for CCGCCUAACGCUGCCAAUGCCGGUCCCAAGCCCUGAUAAAAGUGGAGGGGGCGG [A10G G34U] fall at or above the 0.1 mark?
Ans. class 1

Qu. Quick check: does CCGCCUAACACUGCCAAUGCCGGUCCCAAGCCCGGAUGAAAGUGGAGGGUGCGG [A38G G50U] have self-cleavage greater than or equal to 0.1?
Ans. class 1

Qu. Tell me whether self-cleavage is at least 0.1 here: CCGCCUAAUACUGCCAAUGCCGGUGCCAAGCCCGGAUAAAAGUGGAGGGGGCGG [C25G C9U]
Ans. class 0

Qu. State whether the measured self-cleavage reaches 0.1, counting equality as reaching it, for CCGCCUAACACUGCCAAUGCCGGUCCCUAGCCCGGAUAAAACUGGAGGGGGCGG [A28U G42C]
Ans. class 0

Qu. Decide: is the reported value of self-cleavage for CCGCCUAACACGGCCAAUGCCGGUCCCAAGCCCGGCUAAAAGUGGAGGGGGCGG [A36C U12G] equal to or greater than 0.1?
Ans. class 1

Qu. Please indicate if the recorded self-cleavage for CCGCCUAACACUGCCAAGGCCGGUCCCAAGCCCGGAUAAAGGUGGAGGGGGCGG [A41G U18G] meets or exceeds 0.1.
Ans. class 1

Qu. Reported self-cleavage at or above 0.1? CCGCCUAACACUGCCAAUGCCGGUCCCCAGCCCGGGUAAAAGUGGAGGGGGCGG [A28C A36G]
Ans. class 1

Qu. Does the reported self-cleavage for CCGCCUAACACUGCCAAUGACGGUCCCAAUCCCGGAUAAAAGUGGAGGGGGCGG [C20A G30U] fall at or above the 0.1 mark?
Ans. class 0

Qu. hey, is self-cleavage for this one >= 0.1? CCGCCUAACAAUGCCAAUGCCGGUCCCAAGCCUGGAUAAAAGUGGAGGGGGCGG [C11A C33U]
Ans. class 1

Qu. Form field: self-cleavage at least 0.1? Entry: CCGCCUAACACUGCCAAUGCCGGUCCCAAGCCGGGAUAAAAGCGGAGGGGGCGG [C33G U43C]
Ans. class 0

Qu. Hi, just wondering whether CCGCCUAACACUGCCAAUGCCGGUCCCAAGCCCGUAUAAUAGUGGAGGGGGCGG [A40U G35U] shows self-cleavage of 0.1 or higher.
Ans. class 1

Qu. Would you say CCGCCUAACACUGCCAAUGCCGGUCCCAAGCCACGAUAAAAGUGGAGGGGGCGG [C33A G34C] shows self-cleavage at minimum 0.1?
Ans. class 0

Qu. # bool: self-cleavage of CCGCCUAACACUGCCAAUGCCGGUCCCAAGCCCGGAUAAAAGUAGAGAGGGCGG [G44A G48A] >= 0.1
Ans. class 0

Qu. Exam item: decide whether the reported self-cleavage for CCGCCUUGCACUGCCAAUGCCGGUCCCAAGCCCGGAUAAAAGUGGAGGGGGCGG [A7U A8G] is at least 0.1.
Ans. class 0

Qu. Confirm if self-cleavage reported for the variant CCGCCUGACACUGCCAAUGCCGGUCCCAAGACCGGAUAAAAGUGGAGGGGGCGG [A7G C31A] is 0.1 or above.
Ans. class 0

Qu. Does the reported self-cleavage for CCGCCUAACACUGCCAAUGCCGGUCCCAAGCCCUGAUAAAAGUGGAAGGGGCGG [G34U G47A] fall at or above the 0.1 mark?
Ans. class 0

Qu. For this variant, is measured self-cleavage 0.1 or higher? CCGCCUAACUCUGCCAAUGCCGGUACCAAGCCCGGAUAAAAGUGGAGGGGGCGG [A10U C25A]
Ans. class 0

Qu. Item CCGCCUAACACUGCCAAUGCCGGUCCCAAGCCCGGAUAGAAGAGGAGGGGGCGG [A39G U43A] with self-cleavage of 0.1 or above?
Ans. class 1

Qu. Hello, I need to know if CCGCCUAACACUGCCCUUGCCGGUCCCAAGCCCGGAUAAAAGUGGAGGGGGCGG [A16C A17U] has measured self-cleavage not below 0.1. Thanks!
Ans. class 1

Qu. Has CCGCCUAACACCGCCCAUGCCGGUCCCAAGCCCGGAUAAAAGUGGAGGGGGCGG [A16C U12C] a recorded self-cleavage greater than or equal to 0.1?
Ans. class 1

Qu. Is reported self-cleavage greater than or equal to 0.1 here: CCGCCUAACAUUGCGAAUGCCGGUCCCAAGCCCGGAUAAAAGUGGAGGGGGCGG [C11U C15G]
Ans. class 1

Qu. Exam item: decide whether the reported self-cleavage for CCGCCUUACACUGCCAAUGCCGGUCCCAUGCCCGGAUAAAAGUGGAGGGGGCGG [A29U A7U] is at least 0.1.
Ans. class 0

Qu. Can CCGCCUAACACUGCCAAUGCCGGUCCCGAGCCCGGAUAAUAGUGGAGGGGGCGG [A28G A40U] be said to have self-cleavage at or above 0.1?
Ans. class 0

Qu. Item CCGCCUAAGACUGCCAAUGCCGGUCCCAAGCCCGGAUAGAAGUGGAGGGGGCGG [A39G C9G] with self-cleavage of 0.1 or above?
Ans. class 1

Qu. Evaluate CCGCCUAACACUGCUAAUGCCGGUCCCAAGCCCGGAUAAAAGUGGAGCGGGCGG [C15U G48C] : self-cleavage at minimum 0.1?
Ans. class 0

Qu. Could you verify whether the entry CCGCCUAGCACUGCCAAGGCCGGUCCCAAGCCCGGAUAAAAGUGGAGGGGGCGG [A8G U18G] shows self-cleavage of no less than 0.1?
Ans. class 1

Qu. Is the recorded value of self-cleavage equal to or greater than 0.1 for this variant? CCGCCUAACACUGCCAAUGCCGGUCCCAAGCCCUGAUAAAAGUAGAGGGGGCGG [G34U G44A]
Ans. class 1

Qu. Check if self-cleavage >= 0.1 (inclusive). Item: CCGCCUAAUACUGACAAUGCCGGUCCCAAGCCCGGAUAAAAGUGGAGGGGGCGG [C14A C9U]
Ans. class 0

Qu. Dear colleague, could you confirm whether CCGCCUAACACUGCCAAUGCCGGUCCCAAGCCCGUAUAAAAGUGGAGGCGGCGG [G35U G49C] has self-cleavage at or above 0.1?
Ans. class 0

Qu. Entry CCGCCUAACACUGCCAAUGCCGGUCCCAAGCCCGGAUAAAAGCGGAGGGGGCUG [G53U U43C] : is its self-cleavage no less than 0.1?
Ans. class 1

Qu. Hello, I need to know if CCGCCUAAAACUGCCAAUGCCGGUCCCAAGCCCGGAUAAAAGUUGAGGGGGCGG [C9A G44U] has measured self-cleavage not below 0.1. Thanks!
Ans. class 1
